Assay: qHTS assay for identifying genotoxic compounds that show differential cytotoxicity against isogenic chicken DT40 cell lines with known DNA damage response pathways - wild type cell line (AID 743012); also: nearly all actives have a fitted effect of over 60% in size
Conditions: DT40 wild type chicken cells viability, CellTiter-Glo, 40 h; series mostly up to 68.4 µM
Description: U.S. Tox21 Program National Center for Advancing Translational Sciences [NCATS] NIH Chemical Genomics Center [NCGC] U.S. Environmental Protection Agency [EPA] National Institutes of Environmental Health Sciences [NIEHS] National Toxicology Program [NTP] U.S. Food and Drug Administration [FDA] Tox21 Assay Overview: DNA repair pathways play a critical role in cellular homeostasis by repairing DNA damage induced by endogenous processes and xenobiotics. […]
Records with an inconclusive call do not appear. The source made the active and inactive calls. Calls follow the shape of the dose curve; as a rule, active = well fitted cell-killing curve with a large enough effect in the repeat runs; inconclusive = weak or mixed curves, or effect the other way; inactive = no such curve, though single readings can be large or run the other way.
Reply using exactly one outcome from True for active, False for inactive

| Molecule | Label |
| --- | --- |
| C[N+]1([O-])[C@@H]2CC(OC(=O)[C@H](CO)c3ccccc3)C[C@H]1[C@@H]1O[C@@H]12 (stereo not given in full) | False |

Problem: Which result was noted for this molecule in the test: [H+].[H+].[Hg+2].[O-]B([O-])[O-].[c-]1ccccc1
Result: True

Problem: Which result was noted for this molecule in the test: CN[C@]1(c2ccccc2Cl)CCCCC1=O
Result: False

Problem: Which result was noted for this molecule in the test: CNC(C)Cc1ccccc1 (stereo not given)
Result: False

Problem: Which result was noted for this molecule in the test: NCC[C@H](O)C(=O)N[C@@H]1C[C@H](N)[C@@H](O[C@H]2O[C@H](CN)[C@@H](O)[C@H](O)[C@H]2N)[C@H](O[C@@H]2O[C@H](CO)[C@@H](O)[C@H]2O)[C@H]1O
Result: False
